Tested on: LG0703-F948-PDC complex spheroid viability;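 note: spheroids exposed to agents for 7 days; 100% = DMSO vehicle wells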
Test: Anticancer human tumor LG0703-F948-PDC patient-derived lung adenocarcinoma cell line growth inhibition [RAS]
Conditions: second compound 0.00949 µM; first compound 0.0316 µM; stronger effect = lower value
Excerpt: RAS pathway inhibitors in Combinations in Complex Spheroids A high-throughput screen of multi-cell type tumor spheroids was designed to identify active combinations of RAS pathway inhibitors and targeted small molecules. Complex spheroids include a stromal component modeled by human endothelial cells (HUVEC) and fibroblasts modeled by human mesenchymal stem cells (MSCs). […] Compounds. […] If the clinical Cmax for an agent had not been determined, the highest concentration tested was 10 microM. […]
Overview of recorded viability, T/C for various compounds

{"COMPOUND": "NC1c2ccccc2OC12CCN(c1cnc3c(N4CCCc5ncccc54)n[nH]c3n1)CC2 (stereo unspecified) + CCn1c(-c2cc(N3CCN(C)CC3)cnc2C(C)OC)c2c3cc(ccc31)-c1csc(n1)CC(NC(=O)C1CC1C)C(=O)N1CCCC(N1)C(=O)OCC(C)(C)C2", "viability, T/C / %": 14.5}
{"COMPOUND": "CC(C)NCC(C(=O)N1CCN(c2ncnc3c2C(C)CC3O)CC1)c1ccc(Cl)cc1 (stereo unspecified) + CCn1c(-c2cc(N3CCN(C)CC3)cnc2C(C)OC)c2c3cc(ccc31)-c1csc(n1)CC(NC(=O)C1CC1C)C(=O)N1CCCC(N1)C(=O)OCC(C)(C)C2", "viability, T/C / %": 23.2}
{"COMPOUND": "CC(Nc1ccc2c(c1)OCCn1cc(N3C(=O)OCC3C(F)F)nc1-2)C(N)=O (stereo unspecified) + CCn1c(-c2cc(N3CCN(C)CC3)cnc2C(C)OC)c2c3cc(ccc31)-c1csc(n1)CC(NC(=O)C1CC1C)C(=O)N1CCCC(N1)C(=O)OCC(C)(C)C2", "viability, T/C / %": 20.7}
{"COMPOUND": "Nc1ccn(C2OC(CO)C(O)C2(F)F)c(=O)n1 (stereo unspecified) + CCn1c(-c2cccnc2C(C)OC)c2c3cc(ccc31)N1CCOC(CC(NC(=O)C(C(C)C)N(C)C(=O)C3(F)CCN(C(=O)C#CC(C)(C)N(C)C)CC3)C(=O)N3CCCC(N3)C(=O)OCC(C)(C)C2)C1", "viability, T/C / %": 38}
{"COMPOUND": "CC(=O)OC12COC1CC(O)C1(C)C(=O)C(O)C3=C(C)C(OC(=O)C(O)C(NC(=O)OC(C)(C)C)c4ccccc4)CC(O)(C(OC(=O)c4ccccc4)C21)C3(C)C (stereo unspecified) + CCn1c(-c2cccnc2C(C)OC)c2c3cc(ccc31)N1CCOC(CC(NC(=O)C(C(C)C)N(C)C(=O)C3(F)CCN(C(=O)C#CC(C)(C)N(C)C)CC3)C(=O)N3CCCC(N3)C(=O)OCC(C)(C)C2)C1", "viability, T/C / %": 36.5}
{"COMPOUND": "CC(C)n1nc(-c2ccc3oc(N)nc3c2)c2c(N)ncnc21 + CCn1c(-c2cccnc2C(C)OC)c2c3cc(ccc31)N1CCOC(CC(NC(=O)C(C(C)C)N(C)C(=O)C3(F)CCN(C(=O)C#CC(C)(C)N(C)C)CC3)C(=O)N3CCCC(N3)C(=O)OCC(C)(C)C2)C1", "viability, T/C / %": 28.7}

The origin of these recorded values is PubChem BioAssay AID2060890.
